test system: recombinant NLuc; format: biochemical; conditions: recombinant NLuc, first read column
Structures can show the parent of a compound that is named as a salt.
TEST_READOUT: Reads Counts per second (read 1) (Counts per second)
One number for each entry, in Counts per second.

List the reported Reads Counts per second (read 1) of each molecule below.
1. O=C(/C=C\n1cnc(-c2cc(C(F)(F)F)cc(C(F)(F)F)c2)n1)NNc1cnccn1
2. CC(C)c1cc(C(=O)N2Cc3ccc(CN4CCN(C)CC4)cc3C2)c(O)cc1O
3. CCc1cnn2c(NCc3ccc[n+]([O-])c3)cc(N3CCCC[C@H]3CCO)nc12 [Dinaciclib (SCH727965), Dinaciclib]
4. CCCCc1oc2ccccc2c1C(=O)c1cc(I)c(OCCN(CC)CC)c(I)c1 [Amiodarone HCl]
5. NC(=O)c1ccc[n+]([C@@H]2O[C@H](COP(=O)([O-])OP(=O)(O)OC[C@H]3O[C@@H](n4cnc5c(N)ncnc54)[C@H](O)[C@@H]3O)[C@@H](O)[C@H]2O)c1
6. COC(=O)C1=C(C)NC(C)=C(C(=O)OCCN2CCN(C(c3ccccc3)c3ccccc3)CC2)C1c1cccc([N+](=O)[O-])c1.Cl.Cl (stereo not shown) [Manidipine 2HCl]
7. CC1=NN(c2ccc(C)c(C)c2)C(=O)/C1=N\Nc1cccc(-c2cccc(C(=O)O)c2)c1O

Result:
1: 378225; 2: 289397; 3: 345056; 4: 364410; 5: 385544; 6: 242466; 7: 331875

List the reported Reads Counts per second (read 1) of each molecule below.
1. COC(=O)C1=C(C)NC(C)=C(C(=O)O[C@@H]2CCCN(Cc3ccccc3)C2)[C@@H]1c1cccc([N+](=O)[O-])c1.Cl (racemic) [Benidipine HCl]
2. COCCOC(=O)C1=C(C)NC(C)=C(C(=O)OC/C=C/c2ccccc2)C1c1cccc([N+](=O)[O-])c1 (stereo not shown)
3. OB1OCc2cc(F)ccc21
4. CC(C)(C)NC(=O)N[C@H](C(=O)N1C[C@H]2[C@@H]([C@H]1C(=O)NC(CC1CCC1)C(=O)C(N)=O)C2(C)C)C(C)(C)C (stereo partly shown)
5. C=CCNC1=C2C[C@@H](C)C[C@H](OC)[C@H](O)[C@@H](C)/C=C(\C)[C@H](OC(N)=O)[C@@H](OC)/C=C\C=C(/C)C(=O)NC(=CC1=O)C2=O
6. CC[C@@H]1/C=C(\C)C[C@H](C)C[C@H](OC)[C@H]2O[C@@](O)(C(=O)C(=O)N3CCCC[C@H]3C(=O)O[C@H](/C(C)=C/[C@@H]3CC[C@@H](O)[C@H](OC)C3)[C@H](C)[C@@H](O)CC1=O)[C@H](C)C[C@@H]2OC
7. CC[C@@H](C(=O)[C@@H](C)[C@@H](O)[C@H](C)[C@@H]1O[C@@H]([C@@H](CC)C(=O)O)CC[C@@H]1C)[C@H]1O[C@]2(C=C[C@@H](O)[C@]3(CC[C@@](C)([C@H]4CC[C@](O)(CC)[C@H](C)O4)O3)O2)[C@H](C)C[C@@H]1C
8. Br.Cc1ccc(Sc2ccccc2N2CCNCC2)c(C)c1

Result:
50508
28828
329173
341877
339450
312887
365050
280784

List the reported Reads Counts per second (read 1) of each molecule below.
1. CSc1nc2cc(Cl)c(Oc3cccc(Cl)c3Cl)cc2[nH]1
2. COc1ccc2c(c1OC)C(=O)O[C@@H]2[C@H]1c2c(cc3c(c2OC)OCO3)CCN1C [Noscapine HCl]
3. CC(=O)[C@]1(O)Cc2c(O)c3c(c(O)c2[C@@H](O[C@H]2C[C@H](N)[C@H](O)[C@H](C)O2)C1)C(=O)c1ccccc1C3=O [Idarubicin HCl]
4. CCCCCCCCc1ccc(CCC(N)(CO)CO)cc1

Result:
1: 335937; 2: 358232; 3: 327538; 4: 354171

List the reported Reads Counts per second (read 1) of each molecule below.
1. Cc1ccc(Sc2ccccc2N2CCNCC2)c(C)c1
2. CNCCC(Oc1ccc(C(F)(F)F)cc1)c1ccccc1.Cl (stereo not shown) [Fluoxetine HCl]
3. Cc1cc(C2CCCCC2)n(O)c(=O)c1.NCCO
4. CN(C(=O)CN(CCO)CC(=O)N(C)C(C)(C)Cc1ccccc1)C(C)(C)Cc1ccccc1

Result:
[326546, 317425, 358391, 330534]

List the reported Reads Counts per second (read 1) of each molecule below.
1. O=S(=O)(O)c1cc(O)ccc1O [Ethamsylate]
2. CC(C)(C)c1ccc(C(=O)CCCN2CCC(OC(c3ccccc3)c3ccccc3)CC2)cc1

Result:
388357
323732

====

test system: Vero cells; conditions: Vero cells, 10 μM; 1 = DMSO-treated infected cells
Where a name gives a salt, the structure may show the parent alone.
Note to self: PrestoBlue relative viability under 0.6 means fulfilled, ties and anything higher get not fulfilled.

A selection of reference data follows.
Cc1cc(C2CCCCC2)n(O)c(=O)c1.NCCO [Ciclopirox ethanolamine]    fulfilled
C=C1/C(=C\C=C2/CCC[C@]3(C)[C@@H]([C@H](C)/C=C/[C@H](C)C(C)C)CC[C@@H]23)C[C@@H](O)C[C@@H]1O [Doxercalciferol]    fulfilled
CC(C)n1c(/C=C/C(O)CC(O)CC(=O)O)c(-c2ccc(F)cc2)c2ccccc21 (stereo not shown) [Fluvastatin Sodium]    fulfilled
COc1cccc2c1C(=O)c1c(O)c3c(c(O)c1C2=O)C[C@@](O)(C(C)=O)C[C@@H]3O[C@H]1C[C@H](N)[C@H](O)[C@H](C)O1 [Daunorubicin HCl]    not fulfilled
CCN1CCN(Cc2ccc(Nc3ncc(F)c(-c4cc(F)c5nc(C)n(C(C)C)c5c4)n3)nc2)CC1 [LY2835219]    fulfilled
CCOC(=O)C1=C(COCCN)NC(C)=C(C(=O)OC)C1c1ccccc1Cl (stereo not shown) [Amlodipine Besylate]    not fulfilled
COCCOC(=O)C1=C(C)NC(C)=C(C(=O)OC/C=C/c2ccccc2)C1c1cccc([N+](=O)[O-])c1 (stereo not shown) [Cilnidipine]    not fulfilled
O=C(/C=C\n1cnc(-c2cc(C(F)(F)F)cc(C(F)(F)F)c2)n1)NNc1cnccn1 [KPT-330]    fulfilled
COC(=O)C1=C(C)NC(C)=C(C(=O)OCCN2CCN(C(c3ccccc3)c3ccccc3)CC2)C1c1cccc([N+](=O)[O-])c1 (stereo not shown) [Manidipine]    not fulfilled
CCCCCCCCc1ccc(CCC(N)(CO)CO)cc1 [Fingolimod (FTY720), Fingolimod]    not fulfilled

Query: Please state whether PrestoBlue relative viability is below 0.6 for COc1cc2nccc(Oc3ccc(NC(=O)C4(C(=O)Nc5ccc(F)cc5)CC4)cc3)c2cc1OC [Cabozantinib malate (XL184), Cabozantinib malate]
Result: fulfilled

Query: Please state whether PrestoBlue relative viability is below 0.6 for CSc1nc2cc(Cl)c(Oc3cccc(Cl)c3Cl)cc2[nH]1 [Triclabendazole]
Result: not fulfilled

Query: Please state whether PrestoBlue relative viability is below 0.6 for O=C1CCc2ccc(OCCCCN3CCN(c4cccc(Cl)c4Cl)CC3)cc2N1 [Aripiprazole]
Result: not fulfilled

Query: Please state whether PrestoBlue relative viability is below 0.6 for COC(=O)C1=C(C)NC(C)=C(C(=O)OCCN2CCN(C(c3ccccc3)c3ccccc3)CC2)C1c1cccc([N+](=O)[O-])c1.Cl.Cl (stereo not shown) [Manidipine 2HCl]
Result: not fulfilled

====

tested on: Vero cells; settings: Vero screen
Counter-ions that a name gives are not always drawn.
TEST_READOUT: PrestoBlue relative viability
One number for each entry.

O=C(c1ccc(OCCN2CCCCC2)cc1)c1c(-c2ccc(O)cc2)sc2cc(O)ccc12 [Raloxifene HCl]    0.579
Cl.Cl.Cl.O[C@@H](COc1cccc2ncccc12)CN1CCN([C@@H]2c3ccccc3[C@@H]3[C@H](c4ccccc42)C3(F)F)CC1 [LY335979 (Zosuquidar 3HCL), Zosuquidar 3HCL]    0.5866
COc1cc2nccc(Oc3ccc(NC(=O)C4(C(=O)Nc5ccc(F)cc5)CC4)cc3)c2cc1OC [Cabozantinib malate (XL184), Cabozantinib malate]    0.5119
O=C1CCc2ccc(OCCCCN3CCN(c4cccc(Cl)c4Cl)CC3)cc2N1 [Aripiprazole]    0.6278
O=C1C(O)=C([C@H]2CC[C@H](c3ccc(Cl)cc3)CC2)C(=O)c2ccccc21 [Atovaquone]    1.55

List the reported PrestoBlue relative viability of each compound below.
1. CCN(CC)Cc1cc(Nc2ccnc3cc(Cl)ccc23)ccc1O [Amodiaquine, Amodiaquine dihydrochloride dihydrate]
2. CC[C@H](C)C(=O)O[C@H]1C[C@@H](C)C=C2C=C[C@H](C)[C@H](CC[C@@H]3C[C@@H](O)CC(=O)O3)[C@H]21 [Lovastatin]
3. COCCOC(=O)C1=C(C)NC(C)=C(C(=O)OC/C=C/c2ccccc2)C1c1cccc([N+](=O)[O-])c1 (centres unmarked) [Cilnidipine]

Result:
1: 0.6404; 2: 0.5479; 3: 0.8017
